Target: recombinant soluble homotrimeric HA of A/common magpie/Hong Kong/5052/07 (H5N1) (Influenza A virus A/common magpie/Hong Kong/5052/2007(H5N1))
Experiment: trimeric HA microarray, transfection supernatant set 3
Details: remark: other sources report otherwise
readout kind: Trimeric HA Binding: RLU (RLU)
Answers are plain numbers, in RLU.

Could you share which Trimeric HA Binding: RLU value was measured for TCN-504 (3251_K17) (antibody, V domains shown) VH: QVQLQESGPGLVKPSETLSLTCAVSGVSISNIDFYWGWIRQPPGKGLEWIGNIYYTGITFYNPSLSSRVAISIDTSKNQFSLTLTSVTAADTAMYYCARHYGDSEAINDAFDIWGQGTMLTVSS VL: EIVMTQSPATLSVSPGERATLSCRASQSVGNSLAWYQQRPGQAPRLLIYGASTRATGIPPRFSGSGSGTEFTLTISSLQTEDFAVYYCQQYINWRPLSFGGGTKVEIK ? 17800
